Molecular target: PDE5A1 (Homo sapiens)
Construct: from tissue; host or cells: human platelets from fresh donor blood (10,000 x g supernatant of sonicated lysate)
Test: Inhibition of type 5 phosphodiesterase (PDE5) activity, modified SPA test with human platelet lysate
Format: biochemical
Conditions: 0.5 μM cGMP, read-out: PDE5A1 inhibitory values [measured as −log IC50 (mol/l)] (converted)
EXPERIMENTAL_ENDPOINT: IC50

Known results for molecules:
INSERT INTO measurements (molecule, assay_system, endpoint_value) VALUES
  ('CCC(=O)N1CC[C@@H](NC(=O)c2c(C)[nH]c3c(-c4cc(OC)c(F)cc4OCC4CC4)ncnc23)C1', 'PDE5A1 (Homo sapiens)', '< 1 nM'),
  ('CC(=O)N1CC[C@@H](NC(=O)c2c(C)[nH]c3c(-c4cc(F)ccc4OCC4CC4)ncnc23)[C@H](O)C1 (relative stereo)', 'PDE5A1 (Homo sapiens)', '1 to 10 nM'),
  ('CCC(=O)N1C[C@@H](O)[C@H](NC(=O)c2c(C)[nH]c3c(-c4c(OCC5CC5)ccc5c4OCO5)ncnc23)C1 (relative stereo)', 'PDE5A1 (Homo sapiens)', '< 1 nM');

Please look at the following molecule next.
Lab note: CCC(=O)N1CCC(NC(=O)c2c(C)[nH]c3c(-c4cc(CC)ccc4OCC4CC4)ncnc23)CC1 gave IC50 of < 1 nM
